Some molecules, each annotated with its measured pIC50.
MEASURED_TARGET: full-length human PKCι (Homo sapiens, UniProt P41743)
Construct: Recombinant, full-length human PKCι expressed in Sf21 insect cells is also commercially available; purchased; host or cells: Sf21 insect cells
Sequence (P41743 whole entry): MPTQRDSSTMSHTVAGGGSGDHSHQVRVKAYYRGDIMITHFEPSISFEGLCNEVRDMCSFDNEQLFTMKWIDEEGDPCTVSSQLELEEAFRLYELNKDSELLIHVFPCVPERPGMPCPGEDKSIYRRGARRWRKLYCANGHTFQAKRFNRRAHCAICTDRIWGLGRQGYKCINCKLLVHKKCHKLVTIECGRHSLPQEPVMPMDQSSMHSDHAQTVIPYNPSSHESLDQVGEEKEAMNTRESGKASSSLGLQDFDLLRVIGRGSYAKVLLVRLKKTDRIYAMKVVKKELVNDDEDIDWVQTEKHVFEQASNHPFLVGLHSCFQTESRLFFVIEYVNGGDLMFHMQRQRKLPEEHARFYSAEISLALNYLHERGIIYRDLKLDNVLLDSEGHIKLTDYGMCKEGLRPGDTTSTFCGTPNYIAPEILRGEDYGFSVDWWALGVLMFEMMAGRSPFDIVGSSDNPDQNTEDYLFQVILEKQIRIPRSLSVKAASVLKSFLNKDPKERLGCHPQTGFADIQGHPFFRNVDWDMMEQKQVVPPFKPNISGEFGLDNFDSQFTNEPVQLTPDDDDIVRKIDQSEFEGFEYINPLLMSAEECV
METHOD_SUMMARY: PKCι IC50 IMAP fluorescence polarisation assay, full-length enzyme
Assay type: biochemical
MEASUREMENT_PARAMETERS: full length PKCi at 15 μM ATP; read-out: IC50 in IMAP assay against full length PKCi
pIC50: −log10 of the molar value.

Here's what some known entries look like.
- MOLECULE: "C[C@@H](Nc1cc(-c2nc(N[C@@H]3CCNC3)c3sccc3n2)ccn1)c1ccccc1 [compound 586]"
  MEASURED_PROPERTY: "pIC50"
  VALUE: "6.00 to 7.00"
- MOLECULE: "CC[C@H](Nc1cc(-c2nc(N[C@@H]3CCNC3)c3sccc3n2)ccn1)c1ccccc1 [compound 589]"
  MEASURED_PROPERTY: "pIC50"
  VALUE: "5.00 to 6.00"

Fill blank: measured pIC50 of the molecule C/C=C\c1csc2c(NC[C@@H](N)Cc3ccccc3)nc(-c3ccncc3)nc12 [compound 407] is ____. > 7.00

// query: CC(C)(C)NC(=O)c1csc2c(NC[C@@H](N)Cc3ccccc3)nc(-c3ccncc3)nc12 [compound 557] 5.00 to 6.00

// query: N[C@H](CNc1nc(-c2ccncc2F)nc2c(-c3ccccc3)csc12)Cc1ccccc1 [compound 434] 5.00 to 6.00

// query: c1cc(-c2nc(N[C@@H]3CCNC3)c3sccc3n2)cc(Nc2ccc(CN3CCCC3)cc2)n1 [compound 611] 5.00 to 6.00

// query: N[C@H](CNc1nc(-c2ccncc2)nc2c(C#CCCO)csc12)Cc1ccccc1 [compound 531] > 7.00

// query: O=C(Nc1cc(-c2nc(N[C@@H]3CCNC3)c3sccc3n2)ccn1)c1ccc(F)cc1 [compound 618] 6.00 to 7.00
